- TEST: PK protocol (intravenous and oral administration)
- Format: in vivo, male Sprague Dawley rats
- CONDITION SUMMARY: male, Sprague Dawley, plasma; rat, intravenous, dose 2.99 mg/kg
- Protocol: Pharmacokinetic parameters were determined in male Sprague Dawley rats (Charles River, UK, 250-350 g; or Vital River Laboratory Animal Technology Co Ltd, Beijing, China, 7-9 weeks old). Animals were individually housed during the study and maintained under a 12 h light/dark cycle. Animals had free access to food and water except that some orally dosed animals were food deprived overnight prior to the study. […]
MEASUREMENT TYPE: AUC (ng·h/mL)
Express the result in ng·h/mL but write the number alone.

Query block: AUC lookup needed for CCn1nc(S(=O)(=O)NC(=O)Nc2c3c(cc4c2CCC4)CCC3)cc1C1(OC)COC1 , thanks.
Result block: 2320

Sourced from patent US12012392B2
